Value source: patent US4512986A

Tested on: uterine endometrium of estrone-primed immature rabbits
protocol.description: Clauberg assay (progestational activity, McPhail)
Format: in vivo, rabbit (New Zealand White)
protocol.conditions: oral, 200 μg/rabbit daily
# reported Uterine Weight (X ± S.D.); entries follow

compound: C#C[C@]1(O)CC[C@H]2[C@@H]3CCC4=CC(=O)CC[C@@H]4[C@H]3CC[C@@]21CC [Levonorgestrel, reference compound]
unit.of.measure: g
Uterine Weight (X ± S.D.): 2.80
//
compound: C#C[C@]1(C(C)=O)CC[C@H]2[C@@H]3CC[C@H]4CC(=O)CC[C@]4(C)[C@H]3CC[C@@]21C [5α-Dihydro-17α-ethynylprogesterone, 17α-Ethynyl-5α-pregnane-3,20-dione]
unit.of.measure: g
Uterine Weight (X ± S.D.): 1.30
//
compound: CC(=O)O[C@]1(C(C)=O)CC[C@H]2[C@@H]3C[C@H](C)C4=CC(=O)CC[C@]4(C)[C@H]3CC[C@@]21C [Medroxyprogesterone Acetate, 6α-Methyl-17α-acetoxyprogesterone, reference compound]
unit.of.measure: g
Uterine Weight (X ± S.D.): 3.30
//
compound: C#C[C@]1(C(C)=O)CC[C@H]2[C@@H]3CCC4=CC(=O)CC[C@@H]4[C@H]3CC[C@@]21C [17α-Ethynyl-19-norprogesterone, 17α-ethynyl-19-nor-4-pregnene-3,20-dione]
unit.of.measure: g
Uterine Weight (X ± S.D.): 1.70
//
compound: C#C[C@]1(C(C)=O)CC[C@H]2[C@@H]3CCC4=CC(=O)CC[C@]4(C)[C@H]3CC[C@@]21C [17α-Ethynylprogesterone, 17α-ethynylprogesterone]
unit.of.measure: g
Uterine Weight (X ± S.D.): 1.67

---

System: uterine endometrium of estrone-primed immature rabbits
protocol.description: Clauberg assay (progestational activity, McPhail)
Type: in vivo, rabbit (New Zealand White)
protocol.conditions: sc, 5 μg/rabbit daily
value.type: Uterine Weight (X ± S.D.) (g)

compound: C#C[C@]1(C(C)=O)CC[C@H]2[C@@H]3CC[C@H]4CC(=O)CC[C@]4(C)[C@H]3CC[C@@]21C [5α-Dihydro-17α-ethynylprogesterone, 17α-Ethynyl-5α-pregnane-3,20-dione]
study.target: uterine endometrium of estrone-primed immature rabbits
assay.value: 0.90
--
compound: C#C[C@]1(C(C)=O)CC[C@H]2[C@@H]3CCC4=CC(=O)CC[C@]4(C)[C@H]3CC[C@@]21C [17α-Ethynylprogesterone, 17α-ethynylprogesterone]
study.target: uterine endometrium of estrone-primed immature rabbits
assay.value: 1.63
--
compound: C#C[C@]1(C(C)=O)CC[C@H]2[C@@H]3CCC4=CC(=O)CC[C@@H]4[C@H]3CC[C@@]21C [17α-Ethynyl-19-norprogesterone, 17α-ethynyl-19-nor-4-pregnene-3,20-dione]
study.target: uterine endometrium of estrone-primed immature rabbits
assay.value: 3.55
--
compound: C#C[C@]1(C(C)=O)CC[C@H]2[C@@H]3C[C@H](C)C4=CC(=O)CC[C@]4(C)[C@H]3CC[C@@]21C [6α-Methyl-17α-ethynylprogesterone, 17α-Ethynyl-6α-methylprogesterone]
study.target: uterine endometrium of estrone-primed immature rabbits
assay.value: 1.84

---

study.target: Cytosol Progesterone Receptor of the Estrogen-primed Immature Rabbit Uterus (Oryctolagus cuniculus, UniProt P06186)
Construct: cytosol progesterone receptor of the estrogen-primed immature rabbit uterus; tissue Dutchland Laboratories, Inc., Denver, Pa (animals); host or cells: uterus cytosol of estradiol-treated immature female New Zealand White rabbits
Sequence (P06186 whole entry): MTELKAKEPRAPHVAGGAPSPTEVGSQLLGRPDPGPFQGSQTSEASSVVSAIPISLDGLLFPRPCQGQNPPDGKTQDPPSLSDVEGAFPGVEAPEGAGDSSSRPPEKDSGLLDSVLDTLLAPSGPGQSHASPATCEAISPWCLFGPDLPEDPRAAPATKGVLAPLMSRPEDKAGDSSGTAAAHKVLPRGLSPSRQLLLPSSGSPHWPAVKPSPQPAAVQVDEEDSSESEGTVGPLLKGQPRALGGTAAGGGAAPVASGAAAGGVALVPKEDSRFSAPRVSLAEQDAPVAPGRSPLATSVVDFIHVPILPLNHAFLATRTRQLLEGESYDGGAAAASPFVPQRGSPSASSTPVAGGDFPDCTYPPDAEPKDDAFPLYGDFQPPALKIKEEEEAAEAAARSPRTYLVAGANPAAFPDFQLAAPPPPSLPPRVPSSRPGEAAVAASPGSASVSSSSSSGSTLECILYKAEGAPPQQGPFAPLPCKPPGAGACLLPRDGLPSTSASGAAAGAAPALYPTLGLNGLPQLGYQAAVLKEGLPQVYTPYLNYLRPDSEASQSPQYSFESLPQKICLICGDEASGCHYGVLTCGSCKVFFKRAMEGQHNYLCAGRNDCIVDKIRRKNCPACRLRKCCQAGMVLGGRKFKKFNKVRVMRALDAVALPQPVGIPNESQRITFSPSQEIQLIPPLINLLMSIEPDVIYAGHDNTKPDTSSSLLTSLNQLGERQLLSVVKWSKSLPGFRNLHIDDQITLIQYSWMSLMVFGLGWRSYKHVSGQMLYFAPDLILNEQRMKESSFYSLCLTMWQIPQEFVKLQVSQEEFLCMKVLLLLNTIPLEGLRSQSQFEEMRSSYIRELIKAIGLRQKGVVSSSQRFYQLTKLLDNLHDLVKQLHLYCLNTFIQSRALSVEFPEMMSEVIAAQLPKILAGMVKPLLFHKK
protocol.description: Relative binding affinity for progesterone receptor (competition with 3H-progesterone)
Set-up: species or system rabbit (New Zealand White)
protocol.conditions: Assay 4; 16-18 hour incubation; progesterone = 100
Note to self: use condition met only for RBA readings below 60%; a reading exactly at 60% still gets condition not met.

compound: C#C[C@]1(C(C)=O)CC[C@H]2[C@@H]3CCC4=CC(=O)CC[C@@H]4[C@H]3CC[C@@]21C
qualitative.label: condition not met
//
compound: CC(=O)[C@H]1CC[C@H]2[C@@H]3C[C@H](C)C4=CC(=O)CC[C@]4(C)[C@H]3CC[C@]12C [6α-Methylprogesterone, reference compound]
qualitative.label: condition met
//
compound: C#C[C@]1(C(C)=O)CC[C@H]2[C@@H]3C[C@H](C)C4=CC(=O)CC[C@]4(C)[C@H]3CC[C@@]21C
qualitative.label: condition not met
//
compound: C#C[C@]1(C(C)=O)CC[C@H]2[C@@H]3CC[C@H]4CC(=O)CC[C@@H]4[C@H]3CC[C@@]21C
qualitative.label: condition not met
//
compound: CC(=O)O[C@]1(C(C)=O)CC[C@H]2[C@@H]3C[C@H](C)C4=CC(=O)CC[C@]4(C)[C@H]3CC[C@@]21C [Medroxyprogesterone Acetate, 6α-Methyl-17α-acetoxyprogesterone, reference compound]
qualitative.label: condition met
//
compound: C#C[C@@]1(C(C)=O)CC[C@H]2[C@@H]3C[C@H](C)C4=CC(=O)CC[C@]4(C)[C@H]3CC[C@@]21C
qualitative.label: condition met
